These measurements were taken from ChEMBL document CHEMBL1799988.

Biological target: Nuclear factor erythroid 2-related factor 2 (Homo sapiens) (UniProt Q16236)
Sequence (whole entry): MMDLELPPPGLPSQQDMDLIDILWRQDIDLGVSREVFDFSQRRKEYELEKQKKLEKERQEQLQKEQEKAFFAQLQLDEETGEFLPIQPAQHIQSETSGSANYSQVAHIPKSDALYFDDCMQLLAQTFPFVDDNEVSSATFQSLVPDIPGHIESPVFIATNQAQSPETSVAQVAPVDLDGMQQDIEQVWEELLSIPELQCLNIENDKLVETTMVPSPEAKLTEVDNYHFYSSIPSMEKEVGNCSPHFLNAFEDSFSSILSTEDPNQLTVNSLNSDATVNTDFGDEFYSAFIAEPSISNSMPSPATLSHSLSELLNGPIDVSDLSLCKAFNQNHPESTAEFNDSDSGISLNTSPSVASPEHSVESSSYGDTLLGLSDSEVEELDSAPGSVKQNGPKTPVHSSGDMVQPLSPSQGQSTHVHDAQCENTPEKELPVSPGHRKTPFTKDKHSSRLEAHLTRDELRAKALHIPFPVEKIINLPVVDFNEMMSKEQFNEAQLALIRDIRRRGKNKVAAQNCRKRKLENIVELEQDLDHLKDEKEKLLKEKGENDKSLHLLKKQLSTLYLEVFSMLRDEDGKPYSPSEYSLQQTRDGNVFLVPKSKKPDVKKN
Assay: Induction of Nrf2-mediated GCLM gene expression in human BEAS2B cells at 10 uM after 16 hrs by RT-PCR analysis relative to untreated control
Type: functional, cell-based
measurement_name: fold change (FC)
Reply with just the number.

// worked examples, fold change (FC) included
COc1ccc(C(=O)/C=C/c2ccc(C(F)(F)F)cc2)c(OC)c1OC    4.1
COc1cc(OC)c(C(=O)/C=C/c2ccccc2C(F)(F)F)c(OC)c1    4.4
COc1cccc(OC)c1C(=O)/C=C/c1ccc(C(F)(F)F)cc1    1.4

Per the records, this molecule ( O=C(/C=C/c1ccccc1[N+](=O)[O-])c1ccccc1 ) has fold change (FC) equal to 2.1

The reported value for COc1ccc(C(=O)/C=C/c2ccccc2[N+](=O)[O-])cc1OC in terms of fold change (FC) is 2.3

Reported fold change (FC) of COc1cc(OC)c(C(=O)/C=C/c2cccc(C(F)(F)F)c2)c(OC)c1 : 1.4

COc1ccc(OC)c(C(=O)/C=C/c2ccccc2C(F)(F)F)c1 yielded fold change (FC) of 4.4

Noted for O=C(/C=C/c1ccc(C(F)(F)F)cc1)c1ccccc1 : its fold change (FC) reads 3.1

Briefly, fold change (FC) measured for C[S+]([O-])CCCCN=C=S (stereo unspecified) : 2.7

What the record says about COc1ccc(C(=O)/C=C/c2ccccc2)cc1 : fold change (FC) is 1.9

Quick note, fold change (FC) for COc1ccc(C(=O)/C=C/c2cccc(C(F)(F)F)c2)cc1 landed at 2.7

###

Target: Nuclear factor erythroid 2-related factor 2 (Homo sapiens) (UniProt Q16236)
Assay: Induction of Nrf2-mediated NQO1 gene expression in human BEAS2B cells at 10 uM after 16 hrs by RT-PCR analysis relative to untreated control
Assay type: functional, cell-based
measurement_name: fold change (FC)

Consider the reported fold change (FC) for these compounds:
COc1cc(OC)c(C(=O)/C=C/c2ccccc2[N+](=O)[O-])c(OC)c1    2
COc1ccccc1C(=O)/C=C/c1cccc(C(F)(F)F)c1    2.9

Could you now look at the following compound, please?
// fold change (FC) lookup, compound = COc1ccccc1C(=O)/C=C/c1ccccc1 , result: 3.2

###

Assay: Cytotoxicity against human BEAS2B cells assessed as cell viability after 24 hrs by MTT assay
Assay type: cell-based, BEAS-2B
Parameters: concentration or dose not given beside the values
Settings: read-out: Activity
measurement_name: viability at 24 h (%)
Number in %, nothing else.

Recorded viability at 24 h, per entry:
COc1ccccc1C(=O)/C=C/c1ccc(C(F)(F)F)cc1    91
COc1ccc(OC)c(C(=O)/C=C/c2ccc(C(F)(F)F)cc2)c1    91.6
COc1ccc(C(=O)/C=C/c2ccccc2C(F)(F)F)c(OC)c1    105
COc1ccc(C(=O)/C=C/c2ccc(C(F)(F)F)cc2)c(OC)c1    92.6
COc1ccc(C(=O)/C=C/c2ccccc2C(F)(F)F)cc1    96

Summary for this compound, O=C(/C=C/c1ccccc1C(F)(F)F)c1ccccc1 : viability at 24 h is 145

# viability at 24 h (compound: COc1cc(OC)cc(C(=O)/C=C/c2ccccc2C(F)(F)F)c1 ) is 87.1

Lookup result for COc1cccc(C(=O)/C=C/c2cccc(C(F)(F)F)c2)c1 ; measured viability at 24 h: 95.3

Recorded result, COc1cc(OC)cc(C(=O)/C=C/c2cccc(C(F)(F)F)c2)c1 , viability at 24 h: 108

// field: viability at 24 h; key: COc1cccc(C(=O)/C=C/c2ccccc2C(F)(F)F)c1 ; value = 96.6

Looking up COc1ccc(C(=O)/C=C/c2ccccc2[N+](=O)[O-])cc1 , I see its viability at 24 h listed as 93.2

The recorded viability at 24 h for COc1ccc(C(=O)/C=C/c2ccc(C(F)(F)F)cc2)c(OC)c1OC is 100

COc1cc(OC)c(C(=O)/C=C/c2ccccc2C(F)(F)F)c(OC)c1 has a reported viability at 24 h of 145

Record COc1cc(OC)cc(C(=O)/C=C/c2ccccc2[N+](=O)[O-])c1 . Reported viability at 24 h: 90.9

Entry C[S+]([O-])CCCCN=C=S (stereo not given) [SULFORAPHANE] ; viability at 24 h = 97.3

Lookup result for COc1ccc(C(=O)/C=C/c2ccccc2C(F)(F)F)c(OC)c1OC ; measured viability at 24 h: 102

GET /value?item= COc1cccc(OC)c1C(=O)/C=C/c1ccccc1[N+](=O)[O-] &field=viability at 24 h returns 75.8

Item: COc1cccc(OC)c1C(=O)/C=C/c1ccccc1C(F)(F)F | viability at 24 h: 101

The compound identified as COc1ccccc1C(=O)/C=C/c1ccccc1C(F)(F)F registered its viability at 24 h at 101

Record COc1ccc(C(=O)/C=C/c2ccc(C(F)(F)F)cc2)cc1 . Reported viability at 24 h: 104

###

// values below are reported fold change (FC)
Molecular target: Nuclear factor erythroid 2-related factor 2 (Homo sapiens)
Assay: Induction of Nrf2-mediated GCLM gene expression in human BEAS2B cells at 10 uM after 16 hrs by RT-PCR analysis relative to untreated control
Format: functional, cell-based

Examples from the recorded data:
COc1ccc(OC)c(C(=O)/C=C/c2cccc(C(F)(F)F)c2)c1    1.8
COc1ccccc1C(=O)/C=C/c1cccc(C(F)(F)F)c1    3.9

Query molecule follows.
For record COc1ccc(C(=O)/C=C/c2ccc(C(F)(F)F)cc2)cc1 the listed fold change (FC) is 3.5

###

Here, each record is paired with measured fold change (FC) data.
Target: Nuclear factor erythroid 2-related factor 2 (Homo sapiens)
Assay: Induction of Nrf2-mediated GCLM gene expression in human BEAS2B cells at 10 uM after 16 hrs by RT-PCR analysis relative to untreated control
Type: functional, cell-based
Returns: the value as a bare number; no unit string appended.

Here are 3 compounds together with their reported answers.
COc1cc(C(=O)/C=C/c2ccccc2[N+](=O)[O-])cc(OC)c1OC    1.2
O=C(/C=C/c1cccc(C(F)(F)F)c1)c1ccccc1    3.1
COc1cc(OC)c(C(=O)/C=C/c2ccccc2)c(OC)c1    3.1

Record for COc1cc(C(=O)/C=C/c2ccccc2)cc(OC)c1OC under target or system Nuclear factor erythroid 2-related factor 2 (Homo sapiens): fold change (FC) reported as 0.7

For COc1cc(OC)c(C(=O)/C=C/c2ccccc2[N+](=O)[O-])c(OC)c1 on Nuclear factor erythroid 2-related factor 2 (Homo sapiens), measured fold change (FC) was 2.6

Record for O=C(/C=C/c1ccccc1)c1ccccc1 under target or system Nuclear factor erythroid 2-related factor 2 (Homo sapiens): fold change (FC) reported as 0.7

// compound COc1cc(C(=O)/C=C/c2ccc(C(F)(F)F)cc2)cc(OC)c1OC , assay Nuclear factor erythroid 2-related factor 2 (Homo sapiens), fold change (FC) value: 4.1

Reading of fold change (FC) for COc1ccc(C(=O)/C=C/c2ccc(C(F)(F)F)cc2)c(OC)c1 with Nuclear factor erythroid 2-related factor 2 (Homo sapiens): 5

Entry COc1ccc(C(=O)/C=C/c2ccccc2)c(OC)c1OC , tested on Nuclear factor erythroid 2-related factor 2 (Homo sapiens), has a reported fold change (FC) of 2.4

With Nuclear factor erythroid 2-related factor 2 (Homo sapiens) as the test system, COc1cc(C(=O)/C=C/c2ccccc2C(F)(F)F)cc(OC)c1OC showed fold change (FC) of 3

# COc1ccccc1C(=O)/C=C/c1ccccc1[N+](=O)[O-] with Nuclear factor erythroid 2-related factor 2 (Homo sapiens): fold change (FC) is 1.9

COc1cc(OC)c(C(=O)/C=C/c2ccc(C(F)(F)F)cc2)c(OC)c1 tested on Nuclear factor erythroid 2-related factor 2 (Homo sapiens) gave fold change (FC): 2.4

// compound COc1cccc(OC)c1C(=O)/C=C/c1cccc(C(F)(F)F)c1 , assay Nuclear factor erythroid 2-related factor 2 (Homo sapiens), fold change (FC) value: 1.8

// compound COc1cccc(C(=O)/C=C/c2ccccc2C(F)(F)F)c1 , assay Nuclear factor erythroid 2-related factor 2 (Homo sapiens), fold change (FC) value: 5.6
